tested on: MCF7 breast; assay: NCI tumour cell line growth inhibition, 48 h
Measured Quantity: TGI

Need TGI of "CC(C)(OCc1ccccc1)c1ccccc1P(c1ccccc1)c1ccccc1" , thanks.
> 100 µM

Need TGI of "C[C@]12C=CC(=O)C=C1[C@@H](F)C[C@H]1[C@@H]3CC[C@](O)(C(=O)CO)[C@@]3(C)C[C@H](O)[C@@]12F" , thanks.
> 100 µM

Need TGI of "Cc1ccccc1C1=C/C(=C(\SS/C(C(=O)c2ccc(OCC(=O)O)c(Cl)c2Cl)=C2\C=C(c3ccccc3C)SS2)C(=O)c2ccc(OCC(=O)O)c(Cl)c2Cl)SS1" , thanks.
> 90.7 µM

Need TGI of "CNc1cc(OCc2ccccc2)c(OC)cc1C(=O)N1CCC[C@H]1CO" , thanks.
> 100 µM

Need TGI of "O=C(Nc1ccccc1Cl)c1cc(S(=O)(=O)Nc2n[nH]c(=O)n2-c2ccccc2)c(S)cc1Cl" , thanks.
> 100 µM

Need TGI of "O=C(O)c1c(-c2ccccc2)c(=O)[nH]c2ccccc12" , thanks.
> 100 µM

Need TGI of CCCCCCCCCCCCCCCCCCNc1ccn(C2OC(CO)C(OP(=O)(O)OCC(COP(=O)(O)OCC3OC(n4cc(F)c(NCCCCCCCCCCCCCCCCCC)nc4=O)CC3O)OC(=O)CCCCCCCCCCCCCCC)C2O)c(=O)n1 (stereo not drawn) , thanks.
> 100 µM

Need TGI of Cc1ccc(S(=O)(=O)NC2C(=O)c3ccccc3C(=O)C2n2ccnc2)cc1 (stereo not drawn) , thanks.
> 100 µM
